Tested on: c-Src;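 note: 11-residue human phosphosite peptides and single-mutation variants displayed on the E. coli surface, counted by deep sequencing, each peptide's frequency after selection divided by its frequency in the unselected input library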;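 note: frequency after pTyr selection over input frequency; kinase dosed for 20-30% of maximal phosphorylation in three min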
measurement notes: phosphorylation enrichment, bacterial display (enrichment ratio); higher = better substrate or ligand; peptides without Tyr show the background
// False strictly below 0.6 in phosphorylation enrichment; True otherwise

sequence input	class label
TQRPFYKGGGG [TYROBP_Y112_YF]	False
GIPIQYPIISE [NOG_Y222_W217G]	False
APQFTYTQGGQ [FLNA_Y1763_A1764T_YF]	False
KKARAYRPGIE [FLNA_Y287_G288R]	False
PSELFYSKIGP [SMG1_Y2254_YF]	True

q: Say whether VPLATYMQIYK [RPL21_Y30_R32Q] shows phosphorylation enrichment of 0.6 or more.
a: True

q: Say whether PLDVEYFTLQI [TP53_Y327_G325V] shows phosphorylation enrichment of 0.6 or more.
a: True

q: Say whether SVEELYAIPPD [PEAK1_Y797] shows phosphorylation enrichment of 0.6 or more.
a: True

q: Say whether ANARMYGVLPW [PLP1_Y207_D203N] shows phosphorylation enrichment of 0.6 or more.
a: True
